Source of measurements: the supplement of paper PMC9233669

self-aminoacylation values by entry
Test system: biotinyl-Trp-oxazolone
Experiment: self-aminoacylation, catalytic enhancement (BWO) (fold over background); higher = more active; k-Seq, kA / k0A0; sequences stand for … in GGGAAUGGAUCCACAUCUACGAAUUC…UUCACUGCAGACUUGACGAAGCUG
Fewer inactive variants are shown than the library holds.
Reply with just the number.

Please review the entries below; each comes with its answer.
INSERT INTO measurements (sequencestring, numericreadout) VALUES
  ('CUAAUUCAAACAAUCGGUCUU [Fam1A.1 aminoacylation ribozyme variant]', 1.32),
  ('AUUAACCUGGUCCUCGAGUGA [Fam2.1 aminoacylation ribozyme variant]', 4.11),
  ('UUUAGCCUGGUCAUCGAGUGA [Fam2.1 aminoacylation ribozyme variant]', 7),
  ('CUACUUCAAACACUCGGACUG [Fam1A.1 aminoacylation ribozyme variant]', 1.32),
  ('AUUACCCUGGUAAUUGAGUGA [Fam2.1 aminoacylation ribozyme variant]', 19.2),
  ('CCACACUUCAAGCAAACAGUC [Fam1B.1 aminoacylation ribozyme variant]', 0.375),
  ('AUUCCCCUGGGCAUCGAGUGA [Fam2.1 aminoacylation ribozyme variant]', 11.6),
  ('AUUCCUCUAGGUCAUCGGGUG [Fam2.2 aminoacylation ribozyme variant]', 16.1);

What self-aminoacylation value was documented for this sequence, CCACCCUUCAAUCAAUCGGUC [Fam1B.1 aminoacylation ribozyme variant] ? 20.9

What self-aminoacylation value was documented for this sequence, CCACACUUCACGCAAUCGGUU [Fam1B.1 aminoacylation ribozyme variant] ? 1.45

What self-aminoacylation value was documented for this sequence, GCACACUUCAAGCGAUCGGUC [Fam1B.1 aminoacylation ribozyme variant] ? 2.19

What self-aminoacylation value was documented for this sequence, CGACUUCAAACAAUCCGUCUG [Fam1A.1 aminoacylation ribozyme variant] ? 1.72

What self-aminoacylation value was documented for this sequence, AAUCACUUAGGUCAUCGGGUG [Fam2.2 aminoacylation ribozyme variant] ? 8.45
